- Test system: Mythimna separata
- Assay Info: Stomach toxicity against fourth-instar larval stage of Mythimna separata (Oriental armyworm) in compound-pretreated corn leaves assessed as mortality at 5 mg/kg at 25+/-1 degC measured after 4 days
- Type: functional
# Lookup of reported mortality at 5 mg/kg keyed by entry
Numbers only here, please. The scale is %.

The cases that follow already have their mortality at 5 mg/kg on record.
[[record]]
molecule = "CCCCOSN(C(=O)c1ccc(CC)cc1)N(C(=O)c1cc(C)cc(C)c1)C(C)(C)C"
reported_property = "mortality at 5 mg/kg"
measured_number = 100

[[record]]
molecule = "CCc1ccc(C(=O)N(SOC)N(C(=O)c2cc(C)cc(C)c2)C(C)(C)C)cc1"
reported_property = "mortality at 5 mg/kg"
measured_number = 100

[[record]]
molecule = "Cc1cc(C)cc(C(=O)N(NC(=O)c2ccc3c(c2C)OC(C)C3)C(C)(C)C)c1 (configuration not stated) [FUXIAN]"
reported_property = "mortality at 5 mg/kg"
measured_number = 100

[[record]]
molecule = "CCc1ccc(C(=O)N(SOC(C)(C)C)N(C(=O)c2cc(C)cc(C)c2)C(C)(C)C)cc1"
reported_property = "mortality at 5 mg/kg"
measured_number = 70

[[record]]
molecule = "CCOCCOSN(C(=O)c1ccc(CC)cc1)N(C(=O)c1cc(C)cc(C)c1)C(C)(C)C"
reported_property = "mortality at 5 mg/kg"
measured_number = 100


The molecule identified as CCc1ccc(C(=O)N(SOC(C)(C)CC)N(C(=O)c2cc(C)cc(C)c2)C(C)(C)C)cc1 registered its mortality at 5 mg/kg at 80

The molecule identified as CCc1ccc(C(=O)N(SOCC(C)C)N(C(=O)c2cc(C)cc(C)c2)C(C)(C)C)cc1 registered its mortality at 5 mg/kg at 100

* * *

- Test system: Mythimna separata
- Assay Info: Stomach toxicity against fourth-instar larval stage of Mythimna separata (Oriental armyworm) in compound-pretreated corn leaves assessed as mortality at 10 mg/kg at 25+/-1 degC measured after 4 days
- Assay type: functional
Reported Property: mortality at 10 mg/kg

The cases that follow already have their mortality at 10 mg/kg on record.
[[record]]
compound = "CC(C)(C)OSN(C(=O)c1ccccc1)N(C(=O)c1ccccc1)C(C)(C)C"
reported_property = "mortality at 10 mg/kg"
result = "10%"

[[record]]
compound = "CC(C)(C)N(NC(=O)c1ccccc1)C(=O)c1ccccc1"
reported_property = "mortality at 10 mg/kg"
result = "0%"

[[record]]
compound = "CCc1ccc(C(=O)N(SOC(C)C)N(C(=O)c2cc(C)cc(C)c2)C(C)(C)C)cc1"
reported_property = "mortality at 10 mg/kg"
result = "100%"

[[record]]
compound = "CCc1ccc(C(=O)NN(C(=O)c2cc(C)cc(C)c2)C(C)(C)C)cc1 [TEBUFENOZIDE]"
reported_property = "mortality at 10 mg/kg"
result = "100%"


Query compound follows.
The compound identified as CCc1ccc(C(=O)N(SOC)N(C(=O)c2cc(C)cc(C)c2)C(C)(C)C)cc1 registered its mortality at 10 mg/kg at 100%

* * *

# Lookup of reported mortality at 50 mg/kg keyed by entry
- Tested on: Mythimna separata
- Assay Info: Stomach toxicity against fourth-instar larval stage of Mythimna separata (Oriental armyworm) in compound-pretreated corn leaves assessed as mortality at 50 mg/kg at 25+/-1 degC measured after 4 days
- Assay type: functional
Remember to follow the number with its unit.

The cases that follow already have their mortality at 50 mg/kg on record.
[[record]]
query_smiles = "CCCCOSN(C(=O)c1ccc(CC)cc1)N(C(=O)c1cc(C)cc(C)c1)C(C)(C)C"
reported_property = "mortality at 50 mg/kg"
result = "100%"

[[record]]
query_smiles = "CCOSN(C(=O)c1ccc(CC)cc1)N(C(=O)c1cc(C)cc(C)c1)C(C)(C)C"
reported_property = "mortality at 50 mg/kg"
result = "100%"

[[record]]
query_smiles = "CC(C)OSN(C(=O)c1ccccc1)N(C(=O)c1ccccc1)C(C)(C)C"
reported_property = "mortality at 50 mg/kg"
result = "100%"

[[record]]
query_smiles = "CCCOSN(C(=O)c1ccccc1)N(C(=O)c1ccccc1)C(C)(C)C"
reported_property = "mortality at 50 mg/kg"
result = "90%"

[[record]]
query_smiles = "CCCOSN(C(=O)c1ccc(CC)cc1)N(C(=O)c1cc(C)cc(C)c1)C(C)(C)C"
reported_property = "mortality at 50 mg/kg"
result = "100%"

[[record]]
query_smiles = "COSN(C(=O)c1ccccc1)N(C(=O)c1ccccc1)C(C)(C)C"
reported_property = "mortality at 50 mg/kg"
result = "100%"

[[record]]
query_smiles = "CCc1ccc(C(=O)N(SOC(C)(C)C)N(C(=O)c2cc(C)cc(C)c2)C(C)(C)C)cc1"
reported_property = "mortality at 50 mg/kg"
result = "100%"

[[record]]
query_smiles = "CC(C)(C)N(NC(=O)c1ccccc1)C(=O)c1ccccc1"
reported_property = "mortality at 50 mg/kg"
result = "100%"


The molecule identified as CC(C)(C)OSN(C(=O)c1ccccc1)N(C(=O)c1ccccc1)C(C)(C)C registered its mortality at 50 mg/kg at 100%

The molecule identified as CCOSN(C(=O)c1ccccc1)N(C(=O)c1ccccc1)C(C)(C)C registered its mortality at 50 mg/kg at 85%

The molecule identified as CCc1ccc(C(=O)N(SOC(C)C)N(C(=O)c2cc(C)cc(C)c2)C(C)(C)C)cc1 registered its mortality at 50 mg/kg at 100%

* * *

- Test system: Mythimna separata
- Assay Info: Stomach toxicity against fourth-instar larval stage of Mythimna separata (Oriental armyworm) in compound-pretreated corn leaves assessed as mortality at 25 mg/kg at 25+/-1 degC measured after 4 days
- Type: functional
Reported Property: mortality at 25 mg/kg (%)
Numbers only here, please. The scale is %.

[[record]]
query_smiles = "CCCOSN(C(=O)c1ccccc1)N(C(=O)c1ccccc1)C(C)(C)C"
measurement_unit = "%"
measured_number = 50

[[record]]
query_smiles = "CCc1ccc(C(=O)N(SOC)N(C(=O)c2cc(C)cc(C)c2)C(C)(C)C)cc1"
measurement_unit = "%"
measured_number = 100

[[record]]
query_smiles = "CCOSN(C(=O)c1ccccc1)N(C(=O)c1ccccc1)C(C)(C)C"
measurement_unit = "%"
measured_number = 0

[[record]]
query_smiles = "CC(C)(C)OSN(C(=O)c1ccccc1)N(C(=O)c1ccccc1)C(C)(C)C"
measurement_unit = "%"
measured_number = 100

[[record]]
query_smiles = "CCOSN(C(=O)c1ccc(CC)cc1)N(C(=O)c1cc(C)cc(C)c1)C(C)(C)C"
measurement_unit = "%"
measured_number = 100


The compound identified as CCCOSN(C(=O)c1ccc(CC)cc1)N(C(=O)c1cc(C)cc(C)c1)C(C)(C)C registered its mortality at 25 mg/kg at 100

The compound identified as CCc1ccc(C(=O)N(SOC(C)(C)C)N(C(=O)c2cc(C)cc(C)c2)C(C)(C)C)cc1 registered its mortality at 25 mg/kg at 100

The compound identified as CCCCOSN(C(=O)c1ccc(CC)cc1)N(C(=O)c1cc(C)cc(C)c1)C(C)(C)C registered its mortality at 25 mg/kg at 100

The compound identified as CC(C)(C)N(NC(=O)c1ccccc1)C(=O)c1ccccc1 registered its mortality at 25 mg/kg at 70

The compound identified as CC(C)OSN(C(=O)c1ccccc1)N(C(=O)c1ccccc1)C(C)(C)C registered its mortality at 25 mg/kg at 100

The compound identified as CCc1ccc(C(=O)N(SOC(C)C)N(C(=O)c2cc(C)cc(C)c2)C(C)(C)C)cc1 registered its mortality at 25 mg/kg at 100

The compound identified as COSN(C(=O)c1ccccc1)N(C(=O)c1ccccc1)C(C)(C)C registered its mortality at 25 mg/kg at 100

* * *

- System: Mythimna separata
- Assay Info: Stomach toxicity against fourth-instar larval stage of Mythimna separata (Oriental armyworm) in compound-pretreated corn leaves assessed as mortality at 5 mg/kg at 25+/-1 degC measured after 4 days
- Format: functional
Reported Property: mortality at 5 mg/kg (%)
Numbers only here, please. The scale is %.

The cases that follow already have their mortality at 5 mg/kg on record.
[[record]]
compound = "CCc1ccc(C(=O)N(SOCC(F)(F)F)N(C(=O)c2cc(C)cc(C)c2)C(C)(C)C)cc1"
experimental_system = "Mythimna separata"
reported_property = "mortality at 5 mg/kg"
measured_number = 100

[[record]]
compound = "CCc1ccc(C(=O)N(SOCCc2ccccc2)N(C(=O)c2cc(C)cc(C)c2)C(C)(C)C)cc1"
experimental_system = "Mythimna separata"
reported_property = "mortality at 5 mg/kg"
measured_number = 90

[[record]]
compound = "CCc1ccc(C(=O)N(SOCCOC)N(C(=O)c2cc(C)cc(C)c2)C(C)(C)C)cc1"
experimental_system = "Mythimna separata"
reported_property = "mortality at 5 mg/kg"
measured_number = 90


The compound identified as CCCCCOSN(C(=O)c1ccc(CC)cc1)N(C(=O)c1cc(C)cc(C)c1)C(C)(C)C registered its mortality at 5 mg/kg at 100

The compound identified as CCc1ccc(C(=O)N(SOCCF)N(C(=O)c2cc(C)cc(C)c2)C(C)(C)C)cc1 registered its mortality at 5 mg/kg at 100

The compound identified as CCCOSN(C(=O)c1ccc(CC)cc1)N(C(=O)c1cc(C)cc(C)c1)C(C)(C)C registered its mortality at 5 mg/kg at 90

The compound identified as CCOSN(C(=O)c1ccc(CC)cc1)N(C(=O)c1cc(C)cc(C)c1)C(C)(C)C registered its mortality at 5 mg/kg at 100

The compound identified as CCc1ccc(C(=O)N(SOCc2ccccc2)N(C(=O)c2cc(C)cc(C)c2)C(C)(C)C)cc1 registered its mortality at 5 mg/kg at 90

The compound identified as CCc1ccc(C(=O)NN(C(=O)c2cc(C)cc(C)c2)C(C)(C)C)cc1 [TEBUFENOZIDE] registered its mortality at 5 mg/kg at 95

The compound identified as CCc1ccc(C(=O)N(SOC(C)C)N(C(=O)c2cc(C)cc(C)c2)C(C)(C)C)cc1 registered its mortality at 5 mg/kg at 100
